Just for reference, PubChem BioAssay AID1918946 is where these values come from.

viability, T/C: recorded values
Tested on: 885512-296-R-J2-PDC complex spheroid viability;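 also: spheroids exposed to agents for 7 days before viability read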
Experiment: Anticancer human tumor 885512-296-R-J2-PDC patient-derived breast carcinoma cell line growth inhibition
Conditions: second compound 0.316 µM; first compound 0.001 µM; stronger effect = lower value
Text: Multicellular complex tumor spheroid response to LSD1 Inhibitor Iadademstat in combination with a variety of drugs and investigational agents in selected tumor cell lines The current study was undertaken to assess response to LSD1 inhibitors in combination with standard-of-care drugs and investigational agents in solid tumor complex spheroid models as well as in the K-562 leukemia. […] Compounds. […] If the clinical Cmax for an agent had not been determined, the highest concentration tested was 10 microM. […]
The reply should contain only the number, in %.

Solved cases (3 shown):
CC(C)CC(NC(=O)CNC(=O)c1cc(Cl)ccc1Cl)B1OC(=O)CC(CC(=O)O)(C(=O)O)O1 (centres undefined) + NC1CC1c1ccc(-c2cccc(O)c2)cc1; 113
Cn1ncnc1C1c2n[nH]c(=O)c3cc(F)cc(c23)NC1c1ccc(F)cc1 (centres undefined) + NC1CCC(NC2CC2c2ccccc2)CC1; 113
Cn1ncnc1C1c2n[nH]c(=O)c3cc(F)cc(c23)NC1c1ccc(F)cc1 (centres undefined) + NC1CC1c1ccc(-c2cccc(O)c2)cc1; 121

Measured viability, T/C (885512-296-R-J2-PDC complex spheroid viability), entry CC(C)CC(NC(=O)CNC(=O)c1cc(Cl)ccc1Cl)B1OC(=O)CC(CC(=O)O)(C(=O)O)O1 (centres undefined) + NC1CCC(NC2CC2c2ccccc2)CC1 : 126
